Molecular target: T1, B-cat-Halo (beta-catenin HaloTag construct expressed in HEK293 cells) (UniProt P35222 1-781)
T1 sequence (looked up): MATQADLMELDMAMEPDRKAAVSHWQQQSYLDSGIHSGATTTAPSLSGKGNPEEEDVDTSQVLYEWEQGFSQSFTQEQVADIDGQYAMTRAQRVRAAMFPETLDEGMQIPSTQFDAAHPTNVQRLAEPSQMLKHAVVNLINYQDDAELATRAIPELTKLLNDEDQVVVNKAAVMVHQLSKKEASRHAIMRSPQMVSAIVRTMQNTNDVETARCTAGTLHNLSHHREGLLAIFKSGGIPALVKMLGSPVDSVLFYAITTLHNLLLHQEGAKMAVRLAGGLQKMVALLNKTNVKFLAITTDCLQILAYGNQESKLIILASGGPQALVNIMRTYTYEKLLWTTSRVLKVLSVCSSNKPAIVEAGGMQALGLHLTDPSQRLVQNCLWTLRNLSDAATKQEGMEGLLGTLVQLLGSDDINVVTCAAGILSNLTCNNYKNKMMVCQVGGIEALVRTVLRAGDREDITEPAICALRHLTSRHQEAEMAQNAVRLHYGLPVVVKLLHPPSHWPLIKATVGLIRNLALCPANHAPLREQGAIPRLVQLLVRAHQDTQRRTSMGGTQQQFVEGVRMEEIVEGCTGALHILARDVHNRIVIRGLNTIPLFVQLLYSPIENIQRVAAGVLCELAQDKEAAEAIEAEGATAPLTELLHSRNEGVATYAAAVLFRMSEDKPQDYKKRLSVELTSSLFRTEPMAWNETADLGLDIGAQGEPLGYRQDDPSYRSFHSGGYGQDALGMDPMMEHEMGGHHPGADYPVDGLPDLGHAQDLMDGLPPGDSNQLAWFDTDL
Test: cell-based or functional assay
Starred links: 1 amine or outer side, 2 acyl side, 3 side chain; linkers in the order of their positions; H or OH if unused. Positions of bridges follow the written chain, without caps; N, C: chain ends. Non-standard residues stand in square brackets, D forms with d. Primed or numbered codes have the meaning given here. PyrS2″ = (S)-3-amino-1-((pent-4-en-1-yloxy)carbonyl)pyrrolidine-3-carboxylic acid (stapling residue), C=CCCCOC(=O)N1CC[C@@](N[*:1])(C(=O)[*:2])C1; B5(4) = 2,2-bis(4-pentenyl)glycine = 2-amino-2-(pent-4-en-1-yl)hept-6-enoic acid (stitching residue), C=CCCCC(CCCC=C)(N[*:1])C(=O)[*:2]; B5(3) = 2,2-bis(4-pentenyl)glycine (stitching residue), C=CCCCC(CCCC=C)(N[*:1])C(=O)[*:2]; Phe(3-COOH) = N[C@@H](Cc1cccc(C(=O)O)c1)C(=O)O; Bta = N[C@@H](Cc1csc2ccccc12)C(=O)O; Lys(iPr) = CC(C)NCCCC[C@H](N)C(=O)O; αAllylPro = C=CC[C@@]1(C(=O)O)CCCN1; tBuAla = CC(C)(C)C[C@H](N)C(=O)O; 3Thi = N[C@@H](Cc1ccsc1)C(=O)O; Cha = N[C@@H](CC1CCCCC1)C(=O)O
result-type: NanoBRET Abs IC50

{"columns": ["binder", "result"],
 "data": [
  ["Ac-[αAllylPro]N[Cha][B5(4)]DQ[Lys(iPr)]AFN[PyrS2″]F[Bta]A-NH2 (staple 1-4, 4-11) [I-2065]", "> 20 µM"],
  ["Ac-[αAllylPro]D[tBuAla][B5(3)]D[Phe(3-COOH)]TAFL[PyrS2″][3Thi][Bta]A-NH2 (staple 1-4, 4-11) [I-2051]", "8.3 µM"],
  ["Ac-[αAllylPro]N[Cha][B5(4)]DQHAFN[PyrS2″]F[Bta]A-NH2 (staple 1-4, 4-11) [I-2069]", "> 20 µM"]
]}
